All values here come from patent US20240277698A1.

Test: Multiple-ascending dose (MAD) study, once daily for 10 days in healthy subjects: plasma pharmacokinetics
Format: in vivo, human
Details: human, plasma, oral, 2.5 mg, 2.5 mg QD, low salt diet; Day 10; mean (CV %)
experimental endpoint: AUC(0-inf) (ng·h/mL)
Give a bare numeral; the unit ng·h/mL is implied.

Query :: Entry CCC(=O)N[C@@H]1CCCc2c(-c3ccc4c(c3)CCC(=O)N4C)cncc21 [(R)-Compound 1] : reported AUC(0-inf) = ?
Result :: 1490

* * *

Test: Multiple-ascending dose (MAD) study, once daily for 10 days in healthy subjects: plasma pharmacokinetics
Type: in vivo, human
Settings: human, plasma, oral, 0.5 mg, 0.5 mg QD, normal salt diet; Day 1; mean (CV %); read-out: Cmax, D 1
experimental endpoint: Cmax (ng/mL)
Just the number in ng/mL, nothing appended.

Query :: For the compound shown here, CCC(=O)N[C@@H]1CCCc2c(-c3ccc4c(c3)CCC(=O)N4C)cncc21 [(R)-Compound 1] , give the reported Cmax.
Result :: 5.36
